# system: purified HLA DRB1 *0101 (Homo sapiens, UniProt P01903+P01911, A100R/D57E/F55L/F60I/F76Y/I96L/L162R/M171V/P40L/Q125E/R42F/V115G/Y59C)
# experimental.details: IC50nM to purified HLA | DRB1 *0101
# Protocol: Table printed on a drawing sheet, FIG. 1 Head of the field: IC50nM to purified HLA | DRB1 *0101 First copying reader's note: The comma is the decimal sign and the point a thousands separator (e.g. 21.831); some values are printed bold or italic and some SEQ ID NOs underlined, with no legend on the sheet. Where the first naming reader finds the target: head: IC50nM to purified HLA | DRB1 *0101
Where no end group is shown, it is not given here.
metric: IC50 (nM)
Express your answer in nM, writing the number without its unit.

# example entries with known answers
AAAWFVAAWTLHAAA [SEQ ID NO: 7]; 4.3
AAAWFVAAFTLHAAA [SEQ ID NO: 9]; 5.3
AAAFFVAAYTLHAAA [SEQ ID NO: 13]; 4.4
AAAFFVAAWTLKADA [SEQ ID NO: 16]; 7.2

Req: Value lookup for IC50; key = AAAYFVAAFTLHAAA [SEQ ID NO: 23]
Resp: 3.4

Req: And the next one, AAAKFVAAWTLHAAA [SEQ ID NO: 6] ?
Resp: 3.9

Req: Follow-up entry: AAAHFVAAYTLHAAA [SEQ ID NO: 27]
Resp: 3.8

Req: Also AAAYFVAAWTLHAAA [SEQ ID NO: 21] , if possible.
Resp: 3.7
